- tested_system: ATP-dependent translocase ABCB1 (Homo sapiens, UniProt P08183)
- Sequence (P08183 whole entry): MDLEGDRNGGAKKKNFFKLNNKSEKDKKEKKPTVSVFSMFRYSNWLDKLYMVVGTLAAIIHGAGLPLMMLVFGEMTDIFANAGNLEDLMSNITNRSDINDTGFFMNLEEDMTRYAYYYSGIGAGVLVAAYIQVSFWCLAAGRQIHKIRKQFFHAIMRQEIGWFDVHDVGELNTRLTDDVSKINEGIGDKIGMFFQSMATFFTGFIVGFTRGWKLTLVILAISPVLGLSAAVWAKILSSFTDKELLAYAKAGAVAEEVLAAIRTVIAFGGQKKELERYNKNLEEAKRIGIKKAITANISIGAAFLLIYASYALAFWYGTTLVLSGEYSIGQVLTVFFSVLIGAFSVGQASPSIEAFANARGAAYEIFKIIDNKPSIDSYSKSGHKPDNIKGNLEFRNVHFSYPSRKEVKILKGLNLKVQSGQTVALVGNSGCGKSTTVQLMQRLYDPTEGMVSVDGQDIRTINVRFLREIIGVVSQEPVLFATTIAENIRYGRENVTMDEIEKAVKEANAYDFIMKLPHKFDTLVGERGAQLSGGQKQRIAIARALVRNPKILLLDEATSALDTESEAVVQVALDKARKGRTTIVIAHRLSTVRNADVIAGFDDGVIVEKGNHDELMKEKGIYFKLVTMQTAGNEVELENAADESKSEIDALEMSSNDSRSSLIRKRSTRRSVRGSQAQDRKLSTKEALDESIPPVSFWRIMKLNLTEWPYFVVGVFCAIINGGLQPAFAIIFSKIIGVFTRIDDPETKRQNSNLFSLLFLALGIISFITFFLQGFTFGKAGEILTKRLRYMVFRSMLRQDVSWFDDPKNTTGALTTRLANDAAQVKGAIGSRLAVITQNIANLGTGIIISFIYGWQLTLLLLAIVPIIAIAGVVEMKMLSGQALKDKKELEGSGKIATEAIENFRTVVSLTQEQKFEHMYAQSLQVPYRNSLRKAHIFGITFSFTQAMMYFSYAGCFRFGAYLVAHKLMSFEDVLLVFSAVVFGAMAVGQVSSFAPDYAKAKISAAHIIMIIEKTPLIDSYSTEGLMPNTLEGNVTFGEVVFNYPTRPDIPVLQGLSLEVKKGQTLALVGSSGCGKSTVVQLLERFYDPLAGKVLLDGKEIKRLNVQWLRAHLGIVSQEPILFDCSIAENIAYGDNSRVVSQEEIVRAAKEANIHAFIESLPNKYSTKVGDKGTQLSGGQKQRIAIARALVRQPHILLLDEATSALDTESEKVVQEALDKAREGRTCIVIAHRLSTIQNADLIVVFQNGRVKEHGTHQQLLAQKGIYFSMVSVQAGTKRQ
- test: Inhibition of human MDR1 expressed in MDCK cells assessed as calcein AM accumulation after 30 mins by fluorescence assay
- Type: cell-based
- settings: read-out: IC50
pIC50: −log10 of the molar value.
metric: pIC50

structure_as_smiles=COc1ccc(C(=O)Nc2ccc(-c3ccccc3)cc2[N+](=O)[O-])cc1O metric=pIC50 inequality_symbol== endpoint_result=5.46
structure_as_smiles=COc1cc(C(=O)Nc2ccc(-c3cc(F)cc(F)c3)cc2[N+](=O)[O-])cc(O)c1O metric=pIC50 inequality_symbol== endpoint_result=4.77
structure_as_smiles=COc1cc(C(=O)Nc2ccc(Br)cc2[N+](=O)[O-])cc(OC)c1OC metric=pIC50 inequality_symbol=< endpoint_result=4.00
structure_as_smiles=O=C(Nc1ccc(Br)cc1[N+](=O)[O-])c1cc(O)c(O)c(O)c1 metric=pIC50 inequality_symbol=< endpoint_result=4.00
structure_as_smiles=COc1ccc(NC(=O)c2cc(OC)c(OC)c(OC)c2)c([N+](=O)[O-])c1 metric=pIC50 inequality_symbol=< endpoint_result=4.00
structure_as_smiles=COc1cc(C(=O)Nc2ccc(-c3cccs3)cc2[N+](=O)[O-])cc(OC)c1OC metric=pIC50 inequality_symbol== endpoint_result=4.76
structure_as_smiles=COc1cc(C(=O)Nc2ccc(-c3ccccc3)cc2[N+](=O)[O-])cc(O)c1O metric=pIC50 inequality_symbol== endpoint_result=4.17
structure_as_smiles=COc1cc(C(=O)Nc2ccc(-c3cc(OC)c(OC)c(OC)c3)cc2[N+](=O)[O-])cc(OC)c1OC metric=pIC50 inequality_symbol== endpoint_result=4.61
structure_as_smiles=O=C(Nc1ccc(-c2ccccc2)cc1[N+](=O)[O-])c1cc(O)cc(O)c1 metric=pIC50 inequality_symbol== endpoint_result=4.14
